// reported Kd per item
- testedTarget: FGFR3 (Homo sapiens, UniProt P22607)
- Construct: made in house; host or cells: E. coli derived from BL21, infected with T7 phage
- Sequence (P22607 23-806): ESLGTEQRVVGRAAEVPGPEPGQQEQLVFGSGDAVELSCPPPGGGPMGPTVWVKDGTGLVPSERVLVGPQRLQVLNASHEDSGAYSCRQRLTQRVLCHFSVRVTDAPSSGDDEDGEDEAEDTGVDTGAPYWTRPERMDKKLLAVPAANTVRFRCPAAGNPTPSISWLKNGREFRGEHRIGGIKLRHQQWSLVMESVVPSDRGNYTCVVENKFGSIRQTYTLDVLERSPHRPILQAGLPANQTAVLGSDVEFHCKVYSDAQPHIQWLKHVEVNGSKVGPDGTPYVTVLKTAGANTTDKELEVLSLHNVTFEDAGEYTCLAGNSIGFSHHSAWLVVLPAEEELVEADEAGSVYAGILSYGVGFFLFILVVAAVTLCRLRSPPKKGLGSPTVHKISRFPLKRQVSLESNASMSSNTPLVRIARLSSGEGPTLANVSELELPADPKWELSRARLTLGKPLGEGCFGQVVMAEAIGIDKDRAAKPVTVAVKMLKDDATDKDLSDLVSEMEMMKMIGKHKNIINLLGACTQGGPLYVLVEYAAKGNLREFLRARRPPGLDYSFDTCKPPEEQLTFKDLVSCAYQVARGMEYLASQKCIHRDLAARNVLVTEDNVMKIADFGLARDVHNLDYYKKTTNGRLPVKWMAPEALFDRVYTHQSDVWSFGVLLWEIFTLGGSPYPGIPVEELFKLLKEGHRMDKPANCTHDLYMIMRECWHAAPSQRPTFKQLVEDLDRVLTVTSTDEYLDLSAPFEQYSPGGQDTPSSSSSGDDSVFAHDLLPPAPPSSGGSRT
- methodNotes: Kinase binding assay (kinase-tagged T7 phage, affinity beads, qPCR readout), FGFR3
- details: FGFR binding data
experimentalReadout: Kd

| moleculeSmiles | result |
| --- | --- |
| Cc1cn(-c2nc(Nc3cnn(C[C@H](C)O)c3)ncc2F)c2ncc(NC(=O)/C=C/CN(C)C)cc12 | 0.1 to 100 nM |
| C=CC(=O)Nc1ccc2c(c1)c(CC)cn2-c1nc(Nc2cnn(C)c2)ncc1C | 0.1 to 100 nM |
| C=CC(=O)Nc1ccc2c(c1)c(C)cn2-c1nc(Nc2cnc(C)nc2C)ncc1F | 0.1 to 100 nM |
| C=CC(=O)Nc1ccc2c(c1)c(C)nn2-c1nc(Nc2ccnn2C)ncc1F | 250 to 1000 nM |
| C=CC(=O)Nc1ccc2c(-c3ccnc(Nc4ccn(CCO)n4)n3)cn(C)c2c1 | 0.1 to 100 nM |
| C=CC(=O)Nc1ccc2c(c1)c(C)cn2-c1nc(Nc2cnn(C)c2)ncc1F | 0.1 to 100 nM |
| C#CC(=O)Nc1ccc2c(c1)c(C)cn2-c1nc(Nc2cnn(CCO)c2)ncc1F | 0.1 to 100 nM |
| C=CC(=O)Nc1ccc2c(c1)c(C)cn2-c1nc(Nc2ccnn2C)ncc1F | 0.1 to 100 nM |
| C=CC(=O)Nc1ccc2c(c1)c(C)cn2-c1nc(Nc2cnn(C[C@@H](C)O)c2C)ncc1F | 0.1 to 100 nM |
| CC#CC(=O)Nc1ccc2c(c1)c(C)cn2-c1nc(Nc2cnn(CCO)c2)ncc1C | 0.1 to 100 nM |
| C=CC(=O)Nc1cnc2c(c1)c(C)cn2-c1nc(Nc2ccn(CCO)n2)ncc1C | 0.1 to 100 nM |
| C=CC(=O)Nc1ccc2c(ccn2-c2nc(Nc3cccc(OCCN4CCOCC4)c3)ncc2Cl)c1C | 100 to 250 nM |
| C=CC(=O)Nc1ccc2c(c1)c(C)cn2-c1nc(Nc2cc(C)n(C)n2)ncc1C | 0.1 to 100 nM |
| C=CC(=O)Nc1ccc2c(c1)c1ccccc1n2-c1nc(Nc2cnn(C)c2)ncc1F | 0.1 to 100 nM |
| C=CC(=O)Nc1ccc2c(c1)c(C)cn2-c1nc(Nc2cc(C)nn2C)ncc1Cl | 0.1 to 100 nM |
| C=CC(=O)Nc1ccc2c(c1)c(C)cn2-c1nc(Nc2cn(C)nc2OC)ncc1C#N | 100 to 250 nM |
| C=CC(=O)Nc1ccc2c(c1)c(C)cn2-c1nc(Nc2cnn(C)c2)ncc1Cl | 0.1 to 100 nM |
| C=CC(=O)Nc1ccc2c(-c3ccnc(Nc4cn(CC(F)F)nc4C)n3)cn(C)c2c1 | 0.1 to 100 nM |
| C=CC(=O)Nc1ccc2c(ccn2-c2nc(Nc3ccccc3OCCN3CCOCC3)ncc2Cl)c1 | > 1000 nM |
| C=CC(=O)Nc1ccc2c(c1)c(C)cn2-c1nc(Nc2cnn(C)c2C)ncc1C | 0.1 to 100 nM |
| Cc1cn(-c2nc(Nc3cnn(C)c3C)ncc2F)c2ncc(NC(=O)/C=C/CN(C)C)cc12 | 0.1 to 100 nM |

====

- testedTarget: FGFR1 (Homo sapiens, UniProt P11362)
- Construct: made in house; host or cells: E. coli derived from BL21, infected with T7 phage
- Sequence (P11362 22-822): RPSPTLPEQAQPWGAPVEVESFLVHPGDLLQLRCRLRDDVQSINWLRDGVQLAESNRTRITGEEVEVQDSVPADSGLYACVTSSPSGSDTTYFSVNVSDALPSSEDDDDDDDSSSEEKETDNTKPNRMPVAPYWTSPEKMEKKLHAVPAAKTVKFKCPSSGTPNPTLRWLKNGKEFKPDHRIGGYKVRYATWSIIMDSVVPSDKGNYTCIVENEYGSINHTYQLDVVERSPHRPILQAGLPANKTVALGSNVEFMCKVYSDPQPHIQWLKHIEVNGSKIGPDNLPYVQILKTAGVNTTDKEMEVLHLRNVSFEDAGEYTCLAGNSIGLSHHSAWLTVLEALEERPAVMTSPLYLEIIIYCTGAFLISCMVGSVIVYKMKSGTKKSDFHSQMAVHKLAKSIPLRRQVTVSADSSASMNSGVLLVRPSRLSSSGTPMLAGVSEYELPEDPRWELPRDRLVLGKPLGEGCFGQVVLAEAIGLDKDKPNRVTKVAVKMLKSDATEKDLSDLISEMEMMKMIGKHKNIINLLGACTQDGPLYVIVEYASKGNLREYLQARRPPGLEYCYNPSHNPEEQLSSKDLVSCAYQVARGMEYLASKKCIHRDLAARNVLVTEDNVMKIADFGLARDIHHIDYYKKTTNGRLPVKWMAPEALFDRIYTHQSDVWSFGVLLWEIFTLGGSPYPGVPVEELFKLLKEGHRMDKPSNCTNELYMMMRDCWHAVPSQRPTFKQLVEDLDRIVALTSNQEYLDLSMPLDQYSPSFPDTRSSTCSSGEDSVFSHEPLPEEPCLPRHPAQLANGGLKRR
- methodNotes: Kinase binding assay (kinase-tagged T7 phage, affinity beads, qPCR readout), FGFR1
- details: FGFR binding data
# Kd annotations

| moleculeSmiles | Kd |
| --- | --- |
| C=CC(=O)Nc1ccc2c(-c3nc(Nc4ccc(N5CCOCC5)c(OC)c4)ncc3Cl)cn(C)c2c1 | 0.1 to 100 nM |
| C=CC(=O)Nc1ccc2c(c1)c(C)cn2-c1nc(Nc2ccc(CN3CCOCC3)cc2)ncc1Cl | 0.1 to 100 nM |
| C=CC(=O)Nc1ccc2c(c1)c(C)cn2-c1nc(Nc2ccc(CN3CCN(C)CC3)cc2)ncc1Cl | 0.1 to 100 nM |
| C=CC(=O)Nc1cnc2c(c1)c(C)cn2-c1nc(Nc2ccn(C3COC3)n2)ncc1C | 0.1 to 100 nM |
| C=CC(=O)Nc1ccc2c(c1)c(C)cn2-c1nc(Nc2cnn(CCOCC)c2)ncc1F | 0.1 to 100 nM |
| CC#CC(=O)N(C)c1ccc2c(c1)c(C)cn2-c1nc(Nc2ccnn2C)ncc1C | > 1000 nM |
| C=CC(=O)Nc1ccc2c(-c3nc(Nc4cc(C)nn4C)ncc3Cl)cn(C)c2c1 | 250 to 1000 nM |
| C=CC(=O)Nc1ccc2c(-c3ccnc(Nc4cnn(CC)c4)n3)cn(C)c2c1 | 0.1 to 100 nM |
| C=CC(=O)Nc1ccc2c(c1)c(C)cn2-c1nc(Nc2cc(C)nn2C)ncc1Cl | 100 to 250 nM |
| C=CC(=O)Nc1ccc2c(c1)c1ccccc1n2-c1nc(Nc2cnn(C)c2)ncc1F | 0.1 to 100 nM |
| C=C(C)C(=O)Nc1ccc2c(c1)c(C)cn2-c1nc(Nc2ccnn2C)ncc1C | > 1000 nM |
| C=CC(=O)Nc1ccc2c(c1)c(C)cn2-c1nc(Nc2cnn(C)c2)ncc1C | 0.1 to 100 nM |
| C=CC(=O)Nc1ccc2c(c1)c(C)cn2-c1nc(Nc2cn(C)nc2OC)ncc1Cl | 0.1 to 100 nM |
| Cc1nn(C)cc1Nc1ncc(F)c(-n2cc(C)c3cc(NC(=O)/C=C/CN4CCOCC4)cnc32)n1 | > 1000 nM |
| C=CC(=O)Nc1ccc2c(ccn2-c2nc(Nc3cccc(OCCN4CCOCC4)c3)ncc2Cl)c1C | 0.1 to 100 nM |
| C#CC(=O)Nc1cnc2c(c1)c(C)cn2-c1nc(Nc2ccnn2C)ncc1C | 0.1 to 100 nM |
| CC#CC(=O)Nc1ccc2c(-c3nc(Nc4cnn(CCO)c4)ncc3Cl)cn(C)c2c1 | 250 to 1000 nM |
| C=CC(=O)Nc1ccc2c(ccn2-c2nc(Nc3ccc(OCCN4CCOCC4)cc3)ncc2Cl)c1C | 250 to 1000 nM |
| C=CC(=O)Nc1ccc2c(c1)c(C)cn2-c1nc(Nc2ccc(N3CCOCC3)c(F)c2)ncc1Cl | 0.1 to 100 nM |
| CC#CC(=O)Nc1cnc2c(c1)c(C)cn2-c1nc(Nc2ccnn2C)ncc1C | > 1000 nM |
| C=CC(=O)Nc1ccc2c(-c3nc(Nc4cn(CC)nc4C)ncc3F)cn(C)c2c1 | 250 to 1000 nM |
| C=CC(=O)Nc1ccc2c(-c3nc(Nc4ccc(N5CCN(C)CC5)c(OC)c4)ncc3Cl)cn(C)c2c1 | 0.1 to 100 nM |
| C=CC(=O)Nc1ccc2c(-c3ccnc(Nc4cn(C)nc4C)n3)cn(C)c2c1 | 250 to 1000 nM |
| C=CC(=O)Nc1ccc2c(c1)c(C)nn2-c1ccnc(Nc2ccnn2C)n1 | > 1000 nM |

====

- testedTarget: FGFR1 (Homo sapiens, UniProt P11362)
- Construct: made in house; host or cells: E. coli derived from BL21, infected with T7 phage
- methodNotes: Kinase binding assay (kinase-tagged T7 phage, affinity beads, qPCR readout), FGFR1
- details: FGFR binding data
# Kd per entry
experimentalReadout: Kd

| moleculeSmiles | testedTarget | result |
| --- | --- | --- |
| Cc1cn(-c2nc(Nc3cnn(C[C@H](C)O)c3)ncc2F)c2ncc(NC(=O)/C=C/CN3CCOCC3)cc12 | FGFR1 (Homo sapiens, UniProt P11362) | 250 to 1000 nM |
| C=CC(=O)Nc1ccc2c(c1)c(C)cn2-c1nc(Nc2cn(C(C)(C)C#N)nc2C)ncc1F | FGFR1 (Homo sapiens, UniProt P11362) | 0.1 to 100 nM |
| C=CC(=O)Nc1ccc2c(-c3nc(Nc4ccc(N(C)CCN(C)C)c(OC)c4)ncc3Cl)cn(C)c2c1 | FGFR1 (Homo sapiens, UniProt P11362) | 0.1 to 100 nM |
| C=C(F)C(=O)Nc1ccc2c(c1)c(C)cn2-c1nc(Nc2ccnn2C)ncc1C | FGFR1 (Homo sapiens, UniProt P11362) | > 1000 nM |
| C=CC(=O)Nc1ccc2c(-c3ccnc(Nc4ccn(C5CC5)n4)n3)cn(C)c2c1 | FGFR1 (Homo sapiens, UniProt P11362) | 100 to 250 nM |

====

- testedTarget: FGFR2 (Homo sapiens, UniProt P21802)
- Construct: made in house; host or cells: E. coli derived from BL21, infected with T7 phage
- Sequence (P21802 22-821): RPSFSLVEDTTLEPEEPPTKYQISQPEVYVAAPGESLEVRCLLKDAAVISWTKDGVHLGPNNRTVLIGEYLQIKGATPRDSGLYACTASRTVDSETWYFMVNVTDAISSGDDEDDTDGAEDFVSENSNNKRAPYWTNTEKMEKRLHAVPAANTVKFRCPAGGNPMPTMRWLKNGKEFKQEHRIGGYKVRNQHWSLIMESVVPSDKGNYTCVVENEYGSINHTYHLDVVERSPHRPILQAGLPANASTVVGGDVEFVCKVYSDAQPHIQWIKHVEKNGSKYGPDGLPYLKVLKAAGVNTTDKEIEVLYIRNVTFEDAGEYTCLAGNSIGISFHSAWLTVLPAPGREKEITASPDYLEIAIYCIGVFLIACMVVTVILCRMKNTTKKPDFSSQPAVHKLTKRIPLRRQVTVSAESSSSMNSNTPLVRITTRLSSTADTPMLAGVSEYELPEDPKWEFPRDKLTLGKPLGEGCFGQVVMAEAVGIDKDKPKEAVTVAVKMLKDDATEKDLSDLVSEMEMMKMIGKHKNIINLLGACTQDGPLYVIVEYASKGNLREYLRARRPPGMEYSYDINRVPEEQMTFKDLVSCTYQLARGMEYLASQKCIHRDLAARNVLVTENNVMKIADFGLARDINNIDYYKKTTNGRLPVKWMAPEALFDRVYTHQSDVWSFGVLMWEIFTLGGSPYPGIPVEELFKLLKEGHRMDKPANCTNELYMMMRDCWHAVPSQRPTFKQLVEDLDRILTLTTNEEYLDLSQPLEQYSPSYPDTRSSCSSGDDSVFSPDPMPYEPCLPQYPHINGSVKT
- methodNotes: Kinase binding assay (kinase-tagged T7 phage, affinity beads, qPCR readout), FGFR2
- details: FGFR binding data
experimentalReadout: Kd

| moleculeSmiles | experimentalReadout | result |
| --- | --- | --- |
| C=CC(=O)Nc1ccc2c(c1)c(C)cn2-c1nc(Nc2ccnn2C)ncc1C | Kd | 0.1 to 100 nM |
| C=CC(=O)Nc1ccc2c(ccn2-c2nc(Nc3cnn(C)c3)ncc2Cl)c1 | Kd | 0.1 to 100 nM |
| C=CC(=O)Nc1ccc2c(c1)c(C)nn2-c1nc(Nc2ccnn2C)ncc1C | Kd | > 1000 nM |
| C=CC(=O)Nc1ccc2c(-c3ccnc(Nc4cnn(C(F)F)c4)n3)cn(C)c2c1 | Kd | 0.1 to 100 nM |
| C#CC(=O)Nc1ccc2c(-c3ccnc(Nc4cnn(CCO)c4)n3)cn(C)c2c1 | Kd | 0.1 to 100 nM |
| C=CC(=O)Nc1ccc2c(ccn2-c2nc(Nc3ccc(N(C)CCN(C)C)cc3)ncc2Cl)c1 | Kd | 0.1 to 100 nM |
| C=CC(=O)Nc1ccc2c(c1)c(C)cn2-c1nc(Nc2cc(C)nn2C)ncc1Cl | Kd | 0.1 to 100 nM |
| C=CC(=O)Nc1ccc2c(-c3nc(Nc4ccc(N5CCN(C)CC5)c(OC)c4)ncc3Cl)cn(C)c2c1 | Kd | 0.1 to 100 nM |
| C=CC(=O)Nc1ccc2c(c1)c(C)cn2-c1nc(Nc2cnn(CCCO)c2)ncc1F | Kd | 0.1 to 100 nM |
| C=CC(=O)Nc1ccc2c(c1)c(C)cn2-c1nc(Nc2cnn(C)c2)ncc1C#N | Kd | 0.1 to 100 nM |
| C=CC(=O)Nc1ccc2c(-c3nc(Nc4ccc(N5CCOCC5)nc4)ncc3Cl)cn(C)c2c1 | Kd | 0.1 to 100 nM |
| C=CC(=O)Nc1ccc2c(c1)c(C)cn2-c1nc(Nc2cn(C)nc2C)ncc1Cl | Kd | 0.1 to 100 nM |
| C=CC(=O)Nc1ccc2c(c1)c(C)nn2-c1nc(Nc2ccnn2C)ncc1F | Kd | 250 to 1000 nM |
| C=CC(=O)Nc1ccc2c(c1)c(C)cn2-c1nc(Nc2cnc(C)nc2C)ncc1F | Kd | 0.1 to 100 nM |
| CCC(=O)Nc1ccc2c(ccn2-c2nc(Nc3ccc(N4CCN(C)CC4)cc3)ncc2Cl)c1 | Kd | 250 to 1000 nM |
| C=CC(=O)Nc1ccc2c(c1)c(C)cn2-c1nc(Nc2cnn(C[C@@H](C)OC)c2)ncc1F | Kd | 0.1 to 100 nM |
| C=CC(=O)Nc1ccc2c(c1)c(C)cn2-c1nc(Nc2ccc(OCCN3CCOCC3)cc2)ncc1C | Kd | 0.1 to 100 nM |
| C=CC(=O)Nc1ccc2c(c1)c(C)cn2-c1nc(Nc2ccc(N3CCOCC3)c(OC)c2)ncc1C | Kd | 0.1 to 100 nM |
| C=CC(=O)Nc1ccc2c(c1)c(C)cn2-c1nc(Nc2cccc(CN3CCOCC3)c2)ncc1Cl | Kd | 0.1 to 100 nM |
| C=CC(=O)Nc1ccc2c(c1)c(C)cn2-c1nc(Nc2ccnn2C)ncc1Cl | Kd | 0.1 to 100 nM |
| C=CC(=O)Nc1ccc2c(ccn2-c2nc(Nc3cn(C)nc3OC)ncc2Cl)c1 | Kd | > 1000 nM |
| C=CC(=O)Nc1ccc2c(c1)c(C)cn2-c1nc(Nc2cn(CC)nc2C)ncc1F | Kd | 0.1 to 100 nM |
| Cc1cn(-c2nc(Nc3cnn(C[C@H](C)O)c3)ncc2F)c2ncc(NC(=O)/C=C/CN3CCOCC3)cc12 | Kd | 100 to 250 nM |
